Items are presented alongside their recorded IC50.
Molecular target: ATX (Homo sapiens (Human), UniProt Q13822)
Assay: ATX enzyme inhibition assay (Amplex UltraRed/choline oxidase/HRP, 16:0 Lyso PC substrate)
Type: biochemical
Settings: assay buffer pH 8.5; read-out: IC50 (nM) pH 8.5
Protocol: All compounds were prepared as a 10 mM DMSO stock solution. Solutions at pH 8.5 and pH 7.5 were prepared respectively with the following formulations: All compounds, including the positive control compound, were diluted 5-fold from 10 mM to 2 mM with DMSO in the first step. […] d) The plate was detected by SpectraMax with the following procedures: fluorescence mode; excitation at 550 nm; emission at 590 nm; kinetics; read once every 2 minutes; read continuously for 60 minutes. […]
metricName: IC50 (nM)

INSERT INTO assay_data (compound, valueunit, datavalue) VALUES
  ('CN(c1nc(-c2ccc(F)cc2)c(C#N)s1)c1c2c(nc3c(F)cc(N4CC5(CN(C(=O)[C@H]6COC[C@@H]6O)C5)C4)cc13)[C@H](O)CC2 (single isomer, unassigned)', 'nM', 29.2),
  ('CN(c1nc(-c2ccc(F)cc2)c(C#N)s1)c1c2c(nc3c(F)cc(N4CC5(CN(C(=O)[C@@H]6CCOC6)C5)C4)cc13)[C@H](O)CC2 (single isomer, unassigned)', 'nM', 20.2),
  ('CN(c1nc(-c2ccc(F)cc2)c(C#N)s1)c1c2c(nc3c(F)cc(N4CC5(CN(C(=O)[C@@H]6CCOC6)C5)C4)cc13)C(O)CC2 (some centres unmarked)', 'nM', 23.5),
  ('CN(c1nc(-c2ccc(F)cc2)c(C#N)s1)c1c2c(nc3c(F)cc(N4CC5(CN(C(=O)[C@@]6(O)CCOC6)C5)C4)cc13)[C@@H](O)CC2 (single isomer, unassigned) [Example E19-2a]', 'nM', 26.7),
  ('CN(c1nc(-c2ccc(F)cc2)c(C#N)s1)c1c2c(nc3c(F)cc(N4CCN(CC(=O)N5CC(C)(O)C5)CC4)cc13)[C@@H](O)CC2 (single isomer, unassigned)', 'nM', 17.9);

----------
test system: plasma LPA 18:1 and LPA 18:2; assay: Human plasma ex vivo assay (LPA 18:1 / 18:2 by LC-MS/MS); format: biochemical; details: 37° C., 2 hours, LPA 18:1, read-out: Human plasma ex vivo assay IC50 (18:1 LPA)
Could you please mark 1.0 for values of IC50 below 200 nM and 0.0 for values at or above it?

INSERT INTO measurements (molecule, discretelabel) VALUES
  ('CN1CC[C@H](C(=O)N2CC3(C2)CN(c2cc(F)c4nc5c(c(N(C)c6nc(-c7ccc(F)cc7)c(C#N)s6)c4c2)CCC5O)C3)C1 (stereo partly drawn) [Example E18]', 0.0),
  ('CN(c1nc(-c2ccc(F)cc2)c(C#N)s1)c1c2c(nc3ccc(N4CCN(CC(=O)N5CC(O)C5)CC4)cc13)CCO2 [Example A3]', 1.0),
  ('CN(c1nc(-c2ccc(F)cc2)c(C#N)s1)c1c2c(nc3c(F)cc(N4CC5(CN(C(=O)C(C)(C)N)C5)C4)cc13)C(O)CC2 (stereo not drawn) [Example E29]', 0.0),
  ('CN(c1nc(-c2ccc(F)cc2)c(C#N)s1)c1c2c(nc3ccc(N4CC5(CN(C(=O)C(C)(C)O)C5)C4)nc13)CC2 [Example C24]', 0.0),
  ('CN(c1nc(-c2ccc(F)cc2)c(C#N)s1)c1c2c(nc3c(F)cc(N4CC5(CN(C(=O)C(C)(C)O)C5)C4)cc13)[C@@](C)(O)CC2 (single isomer, unassigned) [Example E35-a]', 0.0),
  ('CN(c1nc(-c2ccc(F)cc2)c(C#N)s1)c1c2c(nc3c(F)cc(N4CCC5(CC4)CN(CC(=O)N4CC(O)C4)C5)cc13)CCC2 [Example A6]', 1.0);
